# STUDY SYSTEM: CDK2 (Homo sapiens)
# ASSAY OVERVIEW: Phage Library Screening with NGS, CDK2
# Format: binding
# Design: Full length CDK2 (residues 1-298) with an N-terminal GST-3C-6×his-TEV tag; GST-3C-6×his-TEV (N, cleaved yes); made in house; host or cells: Sf9 (Bac-to-Bac baculovirus)
# MEASUREMENT CONDITIONS: CDK2, target concentration 100
Numbered stars: 1 amine (or outer) side, 2 acyl side, 3 side chain; on linkers, the order of the positions; unused ones are H or OH. Bridge positions count the residues as written; N and C are the ends. Ends that are not written are not given here. Phenylene(1,4-NHCOCH2)2 = O=C(C[*:1])Nc1ccc(NC(=O)C[*:2])cc1
Reported phage screen counts, Target Concentration 100 values are given for each entry in this list.
MEASUREMENT NAME: phage screen counts, Target Concentration 100

PCLDAFFYCVT (linker 2-9 via Phenylene(1,4-NHCOCH2)2 (inferred))	0
DPAWWRCSIAAVDCEMQ (linker 7-14 via Phenylene(1,4-NHCOCH2)2 (inferred))	0
DPAWWVCAIAAIECSDV (linker 7-14 via Phenylene(1,4-NHCOCH2)2 (inferred); not fully specified (N-terminus, C-terminus))	2330
DPAWWVCSIAAIECESS	10
MACVDAFFSC (linker 3-10 via Phenylene(1,4-NHCOCH2)2 (inferred))	1

###

# STUDY SYSTEM: RNF31 PUB domain (Homo sapiens, UniProt Q96EP0)
# Construct: MBP-TEV (N, cleaved yes); made in house; host or cells: E. coli BL21 (DE3) pLysS
# Sequence (Q96EP0 1-179): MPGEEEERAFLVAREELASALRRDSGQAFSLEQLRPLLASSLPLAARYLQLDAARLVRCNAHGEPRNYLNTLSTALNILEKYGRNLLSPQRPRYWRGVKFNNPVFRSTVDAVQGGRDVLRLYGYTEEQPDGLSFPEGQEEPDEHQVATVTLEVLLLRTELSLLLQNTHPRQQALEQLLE
# ASSAY OVERVIEW: Phage Library Screening with NGS, RNF31 PUB domain
# Assay type: binding
# MEASUREMENT CONDITIONS: clusters C41-C45; BLANK screen, column 3 of 5
Ends that are not written are not given here.
Reported Phage library screen NGS readout, BLANK values are given for each entry in this list.
MEASUREMENT NAME: Phage library screen NGS readout, BLANK

DPAYWHCLYAAASCDDI	0
DPANFTCRVAADVCSTY	1
DPAWWSCMYAAWTCDDT	2
DPASHMCLEAAVMCTYD	0
DPAFWECMYAASDCDAS	0
DPAYWDCLYAAADCAFY	0
DPAYTLCSWAAMYCDSM	1
DPAYWQCIYAAWDCDQM	2
DPAMQECMDAAIMCTYA	0
DPAMQDCQLAALVCTTY	0
DPAFHDCQFAAAVCSTY	0
DPAWNDCLYAAETCISW	1
DPASEWCLDAAVLCTYS	0
DPAIRECMLAALVCSTY	0
DPAYWDCMYAAFYCDDI	0
DPAEWDCLYAAFDCFAN	0
DPAMIDCFLAAQVCATY (not fully specified; cysteine pairing not given here)	0
DPAFDWCLYAADDCAET	0
DPALVTCTWAAIYCDDF	0
DPAWWNCLYAADECWSW	1
DPATEACFDAAIECTYY	0
DPATWWCLYAAEDCVNI	0
DPALRDCLDAAIMCTYT	0
DPAFQFCVEAAVACSYY	0
DPAWTDCDWAALYCEFQ	0
DPALEDCQWAALYCDEY	1
